Assay: One-electron reduction potential by pulse radiolysis
Type: physicochemical
What single electron redox potential was measured for each of the following?

Problem: Return reported single electron redox potential; argument: Cn1c([N+](=O)[O-])cnc1COc1ccc(S(C)(=O)=O)cc1
Solution: −488 mV

Problem: Return reported single electron redox potential; argument: Cc1ncc([N+](=O)[O-])n1CCO [metronidazole, reference compound]
Solution: −516 mV

Problem: Return reported single electron redox potential; argument: CSc1ccc(OCc2ncc([N+](=O)[O-])n2C)cc1
Solution: −511 mV

Problem: Return reported single electron redox potential; argument: Cn1c([N+](=O)[O-])cnc1COc1ccc([S+](C)[O-])cc1 (stereo not shown) [Fexinidazole sulfoxide]
Solution: −493 mV

* * *

What AUC(0-t) was measured for each of the following?
Assay: Rat 28-day toxicokinetics
Assay type: in vivo
Settings: female, Sprague Dawley (Crl:CD (SD)IGS BR), plasma, po, 50 mg/kg, Day 1, female, read-out: AUC0-t(last)
Method: In the rat repeated-dose toxicokinetic study, fexinidazole was administered orally by gavage once a day for 28 consecutive days to ten or fifteen Crl:CD (SD)IGS BR rats/sex/group at doses of 50, 200, or 800 mg/kg/day. […] Systemic exposure to fexinidazole and its sulfoxide and sulfone metabolites was evaluated in three additional animals/sex/group. […] ULOQ Upper limit of quantification […] 24 hours post dosing was calculated and denoted AUC0-24. […]
Don't forget the unit after the number, please.

Problem: Return reported AUC(0-t); argument: CSc1ccc(OCc2ncc([N+](=O)[O-])n2C)cc1
Solution: 759 ng·h/mL

Problem: Return reported AUC(0-t); argument: Cn1c([N+](=O)[O-])cnc1COc1ccc(S(C)(=O)=O)cc1
Solution: 55800 ng·h/mL

Problem: Return reported AUC(0-t); argument: Cn1c([N+](=O)[O-])cnc1COc1ccc([S+](C)[O-])cc1 (stereo not drawn) [Fexinidazole sulfoxide]
Solution: 23200 ng·h/mL

* * *

Assay: Rat single-dose IV and oral pharmacokinetics
Type: in vivo
Settings: male, Sprague Dawley, plasma, 5 mg/kg IV
Property Label: clearance (mL/min/kg)
Give your result in mL/min/kg as a bare value.

Problem: Return reported clearance; argument: CSc1ccc(OCc2ncc([N+](=O)[O-])n2C)cc1
Solution: 76.2

* * *

Assay: Dog 28-day toxicokinetics
Format: in vivo
Details: both sexes, beagle, plasma, po, 800 mg/kg/day, 800 mg/kg/day po, day 14
What Tmax was measured for each of the following?
Give your result in h as a bare value.

Problem: Return reported Tmax; argument: Cn1c([N+](=O)[O-])cnc1COc1ccc([S+](C)[O-])cc1 (stereo not drawn) [Fexinidazole sulfoxide]
Solution: 1.6

Problem: Return reported Tmax; argument: Cn1c([N+](=O)[O-])cnc1COc1ccc(S(C)(=O)=O)cc1
Solution: 6.8

Problem: Return reported Tmax; argument: CSc1ccc(OCc2ncc([N+](=O)[O-])n2C)cc1
Solution: 1.2

* * *

Experiment: Mouse single-dose plasma pharmacokinetics
Format: in vivo
Details: female, NMRI, mouse, plasma, po, 25 mg/kg, plasma, fexinidazole 25 mg/kg po, female NMRI mice; read-out: Cmax
What Cmax was measured for each of the following?
Give your result in ng/mL as a bare value.

Problem: Return reported Cmax; argument: Cn1c([N+](=O)[O-])cnc1COc1ccc([S+](C)[O-])cc1 (centres unmarked) [Fexinidazole sulfoxide]
Solution: 14200

Problem: Return reported Cmax; argument: CSc1ccc(OCc2ncc([N+](=O)[O-])n2C)cc1
Solution: 500
